Target: Tyrosine-protein phosphatase non-receptor type 1 (Mus musculus) (UniProt P35821)
Sequence (P35821 whole entry): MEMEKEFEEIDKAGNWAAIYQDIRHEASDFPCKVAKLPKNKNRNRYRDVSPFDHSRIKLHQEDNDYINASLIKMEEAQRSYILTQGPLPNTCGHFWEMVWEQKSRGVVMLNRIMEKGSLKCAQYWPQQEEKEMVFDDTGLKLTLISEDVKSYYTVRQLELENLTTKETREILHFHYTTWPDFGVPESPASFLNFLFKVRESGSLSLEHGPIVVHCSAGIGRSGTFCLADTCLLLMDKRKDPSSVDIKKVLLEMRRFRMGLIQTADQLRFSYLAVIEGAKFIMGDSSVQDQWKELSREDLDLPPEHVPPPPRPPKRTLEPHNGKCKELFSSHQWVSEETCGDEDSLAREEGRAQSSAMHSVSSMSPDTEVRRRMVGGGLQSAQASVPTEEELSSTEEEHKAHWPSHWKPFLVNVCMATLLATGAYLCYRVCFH
Experiment: Inhibition of PTP1B in mouse C2C12 cells assessed as increase in phosphorylation of Akt at Ser473 residue at 50 uM after 30 mins by Western blot method
Format: cell-based
Calls of active or inactive are those of the source. The rule behind the calls is not given here.
Return exactly one item of 1 (yes) = active, 0 (no) = inactive

[ask] Each compound tested received a call. Report the one for O=C(O)c1ccc(CN2C(=O)/C(=C/c3ccc(OCCc4ccccc4)cc3)S/C2=N\c2ccc(F)cc2)cc1 .
[reply] 0 (no)

[ask] What did the test return for O=C(O)c1ccc(CN2C(=O)/C(=C/c3cccc(Oc4ccccc4)c3)S/C2=N\c2ccc(F)cc2)cc1 ?
[reply] 1 (yes)

[ask] Call for entry O=C(O)c1ccc(CN2C(=O)/C(=C/c3ccc(OCc4ccccc4)cc3)S/C2=N\c2ccc(F)cc2)cc1 :
[reply] 0 (no)

[ask] Name the outcome recorded for O=C(O)c1ccc(CN2C(=O)/C(=C/c3cccc(OCc4ccccc4)c3)S/C2=N\c2ccc(F)cc2)cc1 in the assay.
[reply] 0 (no)

[ask] Short answer needed: outcome of this test for O=C(O)c1ccc(CN2C(=O)/C(=C/c3ccc(Oc4ccccc4)cc3)S/C2=N\c2ccc(F)cc2)cc1 ?
[reply] 1 (yes)

[ask] Which result was noted for this compound in the test: O=C(O)c1ccc(CN2C(=O)/C(=C/c3cccc(OCCc4ccccc4)c3)S/C2=N\c2ccc(F)cc2)cc1
[reply] 0 (no)
